biological target: T1, human IGF2^1-67 (mature insulin-like growth factor 2) (human, UniProt P01344 25-91, biotinylated (site not stated) where immobilised on the chip (Tables 1-4)); assay: SPR steady state, biotin-IGF2 on chip, pH 7.4
T1 construct: mature; also called mature IGF2; biotinylated IGF2
T1 sequence (P01344 25-91): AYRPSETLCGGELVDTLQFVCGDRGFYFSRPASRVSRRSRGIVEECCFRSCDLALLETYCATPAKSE
# Kd per record follows
Just the number please, in nM, no unit attached.

Observe how each entry below is paired with its result.
INPUT: Sample domain 11^AB5 Q1632K (receptor, See m5; HI loop mutant) MKSNEHDDCQVTNPSTGHLFDLSSLSGRAGFTAAYAKGWGVYMSICGENENCPPGVGACFGQTRISVGKANKRLRYVDQVLQLVYKDGSPCPSKSGLSYKSVISFVCRPEAGPTNRPMLISLDKKTCTLFFSWHTPLACEQATECSV — what was its Kd?
OUTPUT: 12.8

INPUT: Give the measured Kd of domain 11^AB5 S1600A (receptor, See m5) MKSNEHDDCQVTNPSTGHLFDLSSLSGRAGFTAAYAKGWGVYMSICGENENCPPGVGACFGQTRISVGKANKRLRYVDQVLQLVYKDGSPCPAKSGLSYKSVISFVCRPEAGPTNRPMLISLDKQTCTLFFSWHTPLACEQATECSV .
OUTPUT: 84.7

--- query ---
INPUT: What does the record list as Kd for domain 11^AB5 K1601R (receptor, See m5) MKSNEHDDCQVTNPSTGHLFDLSSLSGRAGFTAAYAKGWGVYMSICGENENCPPGVGACFGQTRISVGKANKRLRYVDQVLQLVYKDGSPCPSRSGLSYKSVISFVCRPEAGPTNRPMLISLDKQTCTLFFSWHTPLACEQATECSV ?
OUTPUT: 5.78

Data credit: patent US20180237497A1
